Ref: patent US10597388B2

# System: ryegrass, Italian (Italian ryegrass, Lolium multiflorum)
# method.summary: Test C greenhouse herbicide test, pre- and postemergence
# Format: in vivo
# protocol.conditions: Preemergence, 250 g ai/ha; scale 0 to 100 (0 no effect, 100 complete control)
The compounds listed here are annotated with their Ryegrass, Italian plant response rating.
recorded.metric: Ryegrass, Italian plant response rating

• CCOC(=O)Oc1c(C)nn(C)c(=O)c1-c1c(CC)ccc2ccccc12 = 95
• CCOC(=O)Oc1c(C)nn(C)c(=O)c1-c1c(C)sc2c(C)cc(C)cc12 = 90
• Cc1ccc2ccccc2c1-c1c(O)c(C)nn(C)c1=O = 100
• CCC(=O)Oc1c(C)nn(C)c(=O)c1-c1ccc(Br)c2ccccc12 = 100
• COc1nn(C)c(=O)c(-c2c(C)ccc3ccccc23)c1OC(=O)OC(C)C = 85
• Cc1nn(C)c(=O)c(-c2c(C)sc3ccc(Cl)cc23)c1O = 95
